Reported log10 of IC50 values follow for various compounds
target: Factor D (Homo sapiens (Human), UniProt P00746); experiment: biochemical; format: biochemical; conditions: read-out: IC50
Sequence (P00746 26-253): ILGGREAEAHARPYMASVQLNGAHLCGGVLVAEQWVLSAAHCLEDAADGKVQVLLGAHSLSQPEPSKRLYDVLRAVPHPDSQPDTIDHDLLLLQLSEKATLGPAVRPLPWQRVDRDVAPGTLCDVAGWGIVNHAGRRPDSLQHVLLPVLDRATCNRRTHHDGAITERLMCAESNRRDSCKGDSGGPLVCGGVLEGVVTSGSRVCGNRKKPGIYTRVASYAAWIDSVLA
For clarity, the numbers are log10 values of IC50 expressed in µM.

Solved cases below.
Compound | log10 of IC50
NC(=O)n1cc(CC(=O)N2CCS[C@H]2C(=O)NCc2cccc(Cl)c2F)c2cc(OCCO)ccc21 [Example 462] | -1.12
NC(=O)n1cc(NC(=O)N2C[C@H](F)C[C@H]2C(=O)NCc2ccc(Cl)s2)c2ccccc21 [Example 11] | -2.15
CO[C@H]1[C@@H](C(=O)Nc2cccc(OC(F)(F)F)c2F)N(C(=O)Cn2nc(C(N)=O)c3cc(C)ncc32)C[C@@H]1F [Example 636] | -1.89
NC[C@@]1(F)C[C@@H](C(=O)NCc2c(F)ccc(Cl)c2F)N(C(=O)Cc2cn(C(N)=O)c3ccccc23)C1 [Example 471] | -1.05
CC(=O)c1cn(CC(=O)N2[C@@H]3C[C@@H]3C[C@H]2C(=O)N[C@H](CCO)c2cccc(Cl)c2F)c2ncccc12 [Example 557] | -0.87
COC(=O)[C@H]1C[C@@H](C(=O)NCc2c(F)ccc(Cl)c2F)N(C(=O)Nc2cn(C(N)=O)c3ccccc23)C1 [Example 353] | -0.60

Query string: Given the entry NC(=O)n1cc(NC(=O)N2C3CC3C[C@H]2C(=O)NCc2cccc(C(F)(F)F)c2F)c2ccccc21 (some centres unmarked) [Example 261] , report its measured log10 of IC50.
Result string: -1.12

Query string: Quick one: log10 of IC50 for CN[C@H]1C[C@@H](C(=O)NCc2cccc(Cl)c2F)N(C(=O)Cn2cc(C(C)=O)c3ccccc32)C1 [Example 608] ?
Result string: 0.26

Query string: Which log10 of IC50 is reported for this compound? CC(=O)c1cn(CC(=O)N2[C@@H]3C[C@@H]3C[C@H]2C(=O)Nc2cccc(Br)n2)c2nnccc12 [Example 752]
Result string: -1.02

###

Examples of molecules with documented log10 IC50 follow.
biological target: Factor D (Homo sapiens (Human)); assay: biochemical; type: biochemical; settings: read-out: IC50
All values: log10 IC50 [nM].

Query string: Report log10 IC50 for CC(=O)NC[C@@]1(F)C[C@@H](C(=O)NCc2cccc(Cl)c2F)N(C(=O)Nc2cn(C(N)=O)c3ccccc23)C1 please.
Result string: 1.36

Query string: So what's the measured log10 IC50 for this one? CC(=O)c1cn(CC(=O)N2C[C@H](F)[C@@H](N)[C@H]2C(=O)NCc2cccc(Cl)c2F)c2ccccc12
Result string: 2.93

###

molecular target: Factor D (Homo sapiens (Human), UniProt P00746); assay: biochemical; type: biochemical; settings: read-out: IC50
Result Type: log10(IC50) (log10 of the value in nM)
Hey, these are logged values: log10 of IC50, nM being the unit before logging.

Recorded results for 5 compounds are shown here.
Compound | log10(IC50)
NC(=O)n1cc(CC(=O)N2[C@@H]3C[C@@H]3C[C@H]2C(=O)NCc2cccc(Cl)c2F)c2ccccc21 [Example 446] | 1.20
CC(=O)c1cn(CC(=O)N2[C@@H]3C[C@@H]3C[C@H]2C(=O)NCc2cccc(Cl)c2F)c2cccnc12 [Example 553] | 3.72
CC(C)(C)n1nnnc1-c1cc(Cl)c(F)c(CNC(=O)[C@@H]2C[C@@H](F)CN2C(=O)Nc2cn(C(N)=O)c3ccccc23)c1 [Example 347] | 2.83
CCc1cc2c(C(N)=O)nn(CC(=O)N3[C@@H]4C[C@@H]4C[C@H]3C(=O)Nc3cccc(Br)n3)c2cn1 [Example 735] | 0.48
CC(C)(C)n1nnnc1-c1cc(Br)cc(NC(=O)[C@@H]2C[C@H]3C[C@H]3N2C(=O)Nc2cn(C(N)=O)c3ccccc23)c1 [Example 345] | 2.90

Query string: Reported log10(IC50) for NC(=O)n1cc(NC(=O)N2NCCC2C(=O)NCc2cccc(Cl)c2)c2ccccc21 (centres unmarked) [Example 434] : what is it?
Result string: 1.54

Query string: Looking for the measured log10(IC50) of CN(C)CCNC(=O)c1cc(Cl)c(F)c(CNC(=O)[C@@H]2C[C@@H](F)CN2C(=O)Nc2cn(C(N)=O)c3ccccc23)c1 [Example 154] , can you help?
Result string: 3.14

Query string: May I ask what log10(IC50) has been recorded for NC(=O)n1cc(CC(=O)N2CCS[C@H]2C(=O)NCc2cccc(Cl)c2F)c2ccccc21 [Example 450] ?
Result string: 1.40

Query string: Give the measured log10(IC50) of COC[C@@H](NC(=O)[C@@H]1C[C@H]2C[C@H]2N1C(=O)Cc1cn(C(N)=O)c2ccccc12)c1cccc(Cl)c1F [Example 464] .
Result string: 2.40

Query string: Quick check: log10(IC50) of CN(C)C[C@@H](NC(=O)[C@@H]1C[C@H]2C[C@H]2N1C(=O)Nc1cn(C(N)=O)c2ccccc12)c1cccc(Cl)c1F [Example 314] ?
Result string: 1.30

Query string: Report log10(IC50) for NC(=O)n1cc(NC(=O)N2C[C@H](F)C[C@H]2CNCc2cccc(Cl)c2F)c2ccccc21 [Example 116] please.
Result string: 3.06

Ref: patent US9085555B2
